Target: T1, cyIL1RAP-His (Lake Pharma) (cynomolgus monkey, UniProt A0A2K5X5J5 21-367)
T1 construct: Bought protein (Lake Pharma, lot 16205819371); also called cynomolgus IL1RAP; monkey IL1RAP; not shown: His tag
T1 sequence: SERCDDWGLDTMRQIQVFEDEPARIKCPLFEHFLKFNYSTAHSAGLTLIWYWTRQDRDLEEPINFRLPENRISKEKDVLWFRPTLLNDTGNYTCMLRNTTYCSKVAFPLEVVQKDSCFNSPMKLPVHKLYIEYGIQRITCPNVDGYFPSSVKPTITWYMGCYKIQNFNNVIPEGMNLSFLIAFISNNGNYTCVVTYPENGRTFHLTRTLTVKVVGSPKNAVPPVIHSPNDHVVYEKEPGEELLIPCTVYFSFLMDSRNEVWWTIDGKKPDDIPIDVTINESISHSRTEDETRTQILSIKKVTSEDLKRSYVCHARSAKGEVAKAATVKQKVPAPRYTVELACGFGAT
Assay: Octet BLI; mAb captured on anti-mouse IgG Fc sensor; cyIL1RAP-His analyte
Give kon for every item shown.

{"binder": "STLX2029 (antibody, V domains shown, Purified from hybridoma of immunized Alivamab mice; intact IgG; captured on anti-mouse IgG Fc sensors in Octet; kappa light chain; also called 74804_29D13A) VH: QVQLLQSGAEVKKPGSSVKVSCKASGGTFSIYAIDWVRQAPGQGLEWMGGIIPIFGTANSAQKFQGRVTITADKSTSTAYMELSSLRSEDTAVYYCARNGATSDAFDMWGQGTMVTVSS VL: EIVLTQSPGTLSLSPGERATLSCRASLSVSSNYLAWFQQRPGQAPRLLIYGVSRRATGIPDRFSGSGSGTDFTLTISRLEPEDFAVYYCQQYGSSPLTFGGGTKVEIK", "kon": "330000 M⁻¹ s⁻¹"}
{"binder": "STLX2051 (antibody, V domains shown, Purified from hybridoma of immunized Alivamab mice; intact IgG; captured on anti-mouse IgG Fc sensors in Octet; kappa light chain; also called 74804_51C10A) VH: QVQLLQSGAEVKKPGSSVKVSCKASGGTFNIYAIDWVRQAPGQGLEWMGGIIPIFGTANSAQKFQGRVTITADKSTNTAYMELSSLRSEDTAVYYCARNGATSDAFDIWGQGTMVTVSS VL: EIVLTQSPGTLSLSPGERATLSCRASQSVSSNYLAWFQQRPGQAPRLLIYGVSRRATGIPDRFSGSGSGTDFTLTISRLEPEDFAVYYCQQYGSSPLTFGGGTKVEIK", "kon": "326000 M⁻¹ s⁻¹"}
{"binder": "STLX2043 (antibody, V domains shown, Purified from hybridoma of immunized Alivamab mice; intact IgG; captured on anti-mouse IgG Fc sensors in Octet; kappa light chain; also called 74804_43F04A) VH: QVQLLQSGAEVKKPGSSVKVSCKASGGTFSIYAIDWVRQAPGQGLEWMGGIIPIFGTENSAQNFQGRITITADKSTNTAYMELSSLRSEDTAVYYCARNGATSDAFDIWGQGTMVTVFS VL: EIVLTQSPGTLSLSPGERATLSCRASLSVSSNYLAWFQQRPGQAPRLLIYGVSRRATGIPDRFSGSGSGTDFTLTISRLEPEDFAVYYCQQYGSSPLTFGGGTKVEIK", "kon": "412000 M⁻¹ s⁻¹"}

Now look at this entry.
Entry STLX2012 (antibody, V domains shown, Purified from hybridoma of immunized Alivamab mice; intact IgG; captured on anti-mouse IgG Fc sensors in Octet; kappa light chain; also called 74804_12A21B) VH: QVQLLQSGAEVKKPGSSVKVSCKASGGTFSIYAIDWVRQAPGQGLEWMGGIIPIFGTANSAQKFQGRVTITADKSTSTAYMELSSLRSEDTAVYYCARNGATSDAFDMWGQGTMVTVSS VL: EIVLTQSPGTLSLSPGERATLSCRASLSVSSNYLAWFQQRPGQAPRLLIHGVSRRATGIPDRFSGSGSGTDFTLTISRLEPEDFAVYYCQQYGSSPLTFGGGTKVEIK : reported kon = ?
342000 M⁻¹ s⁻¹
